Test system: HeLa
protocol: Colony Forming Units (read-out 6 days), HeLa
Assay type: cell-based, human
condition context: colonies containing more than 30 cells, read-out: Colony Forming Units, score based on IC50, HeLa
As shown below, each of these compounds has a reported IC50 value.

>>> print(df.to_string())
                                   molecule          result
0  Nc1c(C(=O)c2cccnc2N2CCCCC2)oc2ccc(Cl)cc12    10 to 100 nM
1  C#CCOc1ccc(OC)cc1C(=O)c1oc2ccc(Cl)cc2c1N  100 to 1000 nM
2        CCOc1ncccc1C(=O)c1oc2ccc(Cl)cc2c1N    10 to 100 nM
3      COCCOc1ccccc1C(=O)c1oc2ccc(Cl)cc2c1N  100 to 1000 nM
4      CCOc1ccc(F)cc1C(=O)c1oc2ccc(O)cc2c1N    10 to 100 nM
5  Nc1c(C(=O)c2ccccc2OCC(F)(F)F)oc2ccc(Cl)cc12    10 to 100 nM
6      C#CCOc1ccccc1C(=O)c1oc2ccc(Cl)cc2c1N  100 to 1000 nM
7     CCN(C)c1ncccc1C(=O)c1oc2ccc(Cl)cc2c1N  100 to 1000 nM
8         CCOc1ccccc1C(=O)c1cc2cc(OC)ccc2o1    10 to 100 nM

Dear colleague, I am looking for the recorded IC50 of the following compound: CCOc1ccc2oc(C(=O)c3cc(F)ccc3OCC)cc2c1 < 10 nM
